Test system: anti-peptide IgG in plasma
Test: Test Example 4: peptide-specific IgG titer pre and post vaccination, bead-based multiplexed Luminex assay
Type: in vivo, human
Settings: number of 2,588 patients below 10 FIU
Reported Pre-vaccination IgG Negative patients values for a set of sequences

Reference set, count: 3
// lookup Pre-vaccination IgG Negative patients for GIHKQKEKSR (listed as Homo sapiens) [PAP-248]
1,302

// lookup Pre-vaccination IgG Negative patients for LYCESVHNF (listed as Homo sapiens) [PAP-213]
1,166

// lookup Pre-vaccination IgG Negative patients for LYAWEPSFL (listed as Homo sapiens) [MRP3-503]
2,121

// moving on: another record for Pre-vaccination IgG Negative patients
// lookup Pre-vaccination IgG Negative patients for VYDYNCHVDL (listed as Homo sapiens) [SART3-109]
1,382

Data origin: patent US20220233661A1
